system: μ-receptor (Homo sapiens (Human))
assay.remarks: Receptor binding, competitive displacement of [3H]DAMGO
measurement.parameters: 0.25 nM [3H]DAMGO, CHO cell membrane protein, 60 min at 25° C.
Method: The Ki (binding affinity) for μ-receptor was determined with a previously described method using a competitive displacement assay (Neumeyer et al., J. Med. Chem., v. 46, p. 5162-5170, 2003). […] Nonspecific binding was measured by inclusion of 10 μM naloxone. […] The filters were subsequently washed three times with 3 mL of cold 50 mM Tris-HCl, pH 7.5, and were counted in 2 mL Ecoscint A scintillation fluid. […] IC50 values will be calculated by least squares fit to a logarithm-probit analysis. […]
Where a name gives a salt, the structure may show the parent alone.
The compounds listed here are annotated with their Ki.

# compound, system, endpoint.result
data = [
    ("COC1(c2ccc(C(N)=O)s2)C2CCCC1CN(CCN1CCCS1(=O)=O)C2 (stereo not drawn)", "μ-receptor (Homo sapiens (Human))", "< 1 nM"),
]

Task: Field request: Ki | item: CCCC(C)N1CC2CCCC(C1)C2(OC)c1ccnc(C(N)=O)c1 (stereo not drawn) [Compound 118, hydrochloride]
Result: 1 to 5 nM

Task: Field request: Ki | item: COC1(c2ccnc(C(N)=O)c2)C2CCCC1CN(Cc1cnc[nH]1)C2.Cl (stereo not drawn) [Compound 96, hydrochloride]
Result: < 1 nM

###

system: μ-receptor (Homo sapiens (Human))
assay.remarks: Receptor binding, competitive displacement of [3H]DAMGO
measurement.parameters: 0.25 nM [3H]DAMGO, CHO cell membrane protein, 60 min at 25° C.
pKi: −log10 of the molar value. Where a name gives a salt, the structure may show the parent alone.
parameter.measured: pKi

Please review the following examples before continuing.
# molecule, endpoint.result
measured = [
    ("COC1(c2cccc(C(N)=O)c2F)C2CCCC1CN(C)C2 (stereo not shown) [Compound 39, hydrochloride]", "8.30 to 9.00"),
    ("COC1(c2cccc(C(N)=O)c2)C2CCCC1CN(CC1(F)CC1)C2 (stereo not shown) [Compound 40, hydrochloride]", "> 9.00"),
    ("COC1(c2ccnc(C(N)=O)c2)C2CCCC1CN([C@H]1CC[C@@H]1C)C2 (stereo in doubt) [Compound 147, hydrochloride]", "8.30 to 9.00"),
    ("COC1(c2cccc(C(N)=O)c2)C2CCCC1CN([C@H]1C[C@@H]3[C@H](C1)C3(F)F)C2 (stereo partly shown) [Compound 17, hydrochloride]", "> 9.00"),
    ("COC1(c2cccc(C(N)=O)c2)C2CCCC1CN([C@@H]1CCCOC1)C2 (single isomer, unassigned) [Compound 141, hydrochloride]", "> 9.00"),
    ("COC1(c2ccnc(C(N)=O)c2)C2CCCC1CN([C@H]1CCCOC1)C2 (stereo partly shown) [Compound 132, hydrochloride]", "8.30 to 9.00"),
]

Could you now consider this next molecule?
Task: Field request: pKi | item: COC1(c2ccnc(C(N)=O)c2)C2CCCC1CN([C@H]1CC[C@H]1c1ccccc1)C2 (stereo partly shown) [Compound 116]
Result: < 8.30

###

system: human μ opioid receptor (Homo sapiens (Human), UniProt P35372)
assay.remarks: Functional activity ([35S]GTPγS binding)
Type: biochemical
measurement.parameters: [35S]GTPγS 0.080 nM, CHO cell membranes, 60 min at 30° C., filtration
Counter-ions that a name gives are not always drawn.
parameter.measured: EC50

Task: Record lookup: for human μ opioid receptor (Homo sapiens (Human), UniProt P35372), what EC50 belongs to COC1(c2ccnc(C(N)=O)c2)C2CCCC1CN(Cc1cc3ccccc3[nH]1)C2 (centres unmarked) ?
Result: < 10 nM

Task: Record lookup: for human μ opioid receptor (Homo sapiens (Human), UniProt P35372), what EC50 belongs to COC1(c2ccnc(C(N)=O)c2)C2CCCC1CN(C[C@H]1CCCO1)C2.Cl (single isomer, unassigned) [Compound 136, hydrochloride] ?
Result: 10 to 75 nM

Task: Record lookup: for human μ opioid receptor (Homo sapiens (Human), UniProt P35372), what EC50 belongs to COC1(c2ccnc(C(N)=O)c2)C2CCCC1CN(C1CCC(F)(F)CC1)C2 (centres unmarked) [Compound 7, hydrochloride] ?
Result: > 75 nM

Task: Record lookup: for human μ opioid receptor (Homo sapiens (Human), UniProt P35372), what EC50 belongs to COC1(c2cccc(C(N)=O)c2)C2CCCC1CN(C[C@@H]1CCOC1)C2.Cl (single isomer, unassigned) [Compound 143, hydrochloride] ?
Result: < 10 nM

Task: Record lookup: for human μ opioid receptor (Homo sapiens (Human), UniProt P35372), what EC50 belongs to COC1(c2ccnc(C(N)=O)c2)C2CCCC1CN(CC1CC1)C2.Cl (centres unmarked) [Compound 27, hydrochloride] ?
Result: 10 to 75 nM

Task: Record lookup: for human μ opioid receptor (Homo sapiens (Human), UniProt P35372), what EC50 belongs to COC1(c2cccc(C(N)=O)c2)C2CCCC1CN(CC1CCOCC1)C2.Cl (centres unmarked) [Compound 122, hydrochloride] ?
Result: 10 to 75 nM

Task: Record lookup: for human μ opioid receptor (Homo sapiens (Human), UniProt P35372), what EC50 belongs to COC1(c2ccnc(C(N)=O)c2)C2CCCC1CN(CCN1CCCS1(=O)=O)C2 (centres unmarked) [Compound 88, hydrochloride] ?
Result: > 75 nM

Task: Record lookup: for human μ opioid receptor (Homo sapiens (Human), UniProt P35372), what EC50 belongs to COC1(c2ccnc(C(N)=O)c2)C2CCCC1CN(Cc1ncco1)C2 (centres unmarked) [Compound 113, hydrochloride] ?
Result: > 75 nM

Task: Record lookup: for human μ opioid receptor (Homo sapiens (Human), UniProt P35372), what EC50 belongs to COC[C@@H](C)N1CC2CCCC(C1)C2(OC)c1ccnc(C(N)=O)c1 (single isomer, unassigned) [Compound 62, hydrochloride] ?
Result: > 75 nM

Task: Record lookup: for human μ opioid receptor (Homo sapiens (Human), UniProt P35372), what EC50 belongs to COC1(c2cccc(C(N)=O)c2)C2CCCC1CN(C[C@H]1CCOC1)C2 (single isomer, unassigned) [Compound 148, hydrochloride] ?
Result: < 10 nM

Task: Record lookup: for human μ opioid receptor (Homo sapiens (Human), UniProt P35372), what EC50 belongs to COC1(c2ccnc(C(N)=O)c2)C2CCCC1CN([C@H]1CC[C@@H]1C)C2 (single isomer, unassigned) [Compound 144, hydrochloride] ?
Result: 10 to 75 nM

Task: Record lookup: for human μ opioid receptor (Homo sapiens (Human), UniProt P35372), what EC50 belongs to CN1CC2CCCC(C1)C2(OCC(F)(F)F)c1cccc(C(N)=O)c1 (centres unmarked) [Compound 37, hydrochloride] ?
Result: 10 to 75 nM

Task: Record lookup: for human μ opioid receptor (Homo sapiens (Human), UniProt P35372), what EC50 belongs to COC1(c2cccc(C(N)=O)c2)C2CCCC1CN(C1CCC3(CC1)COC3)C2 (centres unmarked) ?
Result: < 10 nM

Task: Record lookup: for human μ opioid receptor (Homo sapiens (Human), UniProt P35372), what EC50 belongs to COC1(c2ccnc(C(N)=O)c2)C2CCCC1CN([C@H]1C[C@@H]3[C@H](C1)C3(F)F)C2 (some centres unmarked) [Compound 18, hydrochloride] ?
Result: < 10 nM

###

The compounds listed here are annotated with their pEC50.
system: human μ opioid receptor (Homo sapiens (Human))
assay.remarks: Functional activity ([35S]GTPγS binding)
Type: biochemical
measurement.parameters: [35S]GTPγS 0.080 nM, CHO cell membranes, 60 min at 30° C., filtration
pEC50: −log10 of the molar value. Counter-ions that a name gives are not always drawn.

Please review the following examples before continuing.
# compound, endpoint.result
rows = [
    ("COC1(c2cccc(C(N)=O)c2)C2CCCC1CN([C@H]1CCCOC1)C2.Cl (single isomer, unassigned) [Compound 140, hydrochloride]", "7.12 to 8.00"),
    ("COC1(c2ccnc(C(N)=O)c2)C2CCCC1CN(CCN1CCNC1=O)C2 (stereo not shown) [Compound 85, hydrochloride]", "7.12 to 8.00"),
    ("COC1(c2ccnc(C(N)=O)c2)C2CCCC1CN(C1CC3(CCOCC3)C1)C2 (stereo not shown) [Compound 13, hydrochloride]", "> 8.00"),
    ("COC1(c2ccnc(C(N)=O)c2)C2CCCC1CN(C[C@H]1C[C@@H]3C[C@@H]3C1)C2 (stereo partly shown) [Compound 102, hydrochloride]", "7.12 to 8.00"),
    ("CCN1CC2CCCC(C1)C2(OC)c1ccnc(C(N)=O)c1 (stereo not shown) [Compound 66, hydrochloride]", "7.12 to 8.00"),
    ("COC1(c2cccc(C(N)=O)c2)C2CCCC1CN(C1CC1)C2 (stereo not shown) [Compound 38, hydrochloride]", "7.12 to 8.00"),
    ("CCOC1(c2cccc(C(N)=O)c2)C2CCCC1CN(CC1CC1)C2 (stereo not shown) [Compound 30, hydrochloride]", "> 8.00"),
    ("COC1(c2ccnc(C(N)=O)c2)C2CCCC1CN(Cc1ccncc1)C2 (stereo not shown) [Compound 69, hydrochloride]", "< 7.12"),
]

Task: Field request: pEC50 | item: COC1(c2ccnc(C(N)=O)c2)C2CCCC1CN(C13CC(c4ccccc4)(C1)C3)C2 (stereo not shown) [Compound 106, hydrochloride]
Result: > 8.00

Task: Field request: pEC50 | item: COC1(c2cccc(C(N)=O)c2)C2CCCC1CN(C1CC3CCC(C1)O3)C2 (single isomer, unassigned) [Compound 14, hydrochloride]
Result: < 7.12

Task: Field request: pEC50 | item: COC1(c2ccnc(C(N)=O)c2)C2CCCC1CN(C1CC3CCC(C1)O3)C2 (stereo not shown) [Compound 10, hydrochloride]
Result: < 7.12

Task: Field request: pEC50 | item: COC1(c2cccc(C(N)=O)c2)C2CCCC1CN(C1CCOCC1)C2 (stereo not shown) [Compound 45, hydrochloride]
Result: 7.12 to 8.00

Task: Field request: pEC50 | item: COC1(c2ccnc(C(N)=O)c2F)C2CCCC1CN(C)C2 (stereo not shown) [Compound 53, hydrochloride]
Result: < 7.12

Task: Field request: pEC50 | item: COC1(c2ccnc(C(N)=O)c2)C2CCCC1CN(C1(C)CC1)C2 (stereo not shown) [Compound 4, hydrochloride]
Result: < 7.12

Task: Field request: pEC50 | item: COC1(c2ccnc(C(N)=O)c2F)C2CCCC1CN(C1CC1)C2 (stereo not shown) [Compound 57, hydrochloride]
Result: < 7.12

Task: Field request: pEC50 | item: COC1(c2cccc(C(N)=O)c2)C2CCCC1CN(C1CCC1)C2 (stereo not shown) [Compound 42, hydrochloride]
Result: > 8.00

Task: Field request: pEC50 | item: COC1(c2cccc(C(N)=O)c2)C2CCCC1CN(CC1COC1)C2 (stereo not shown)
Result: 7.12 to 8.00

Task: Field request: pEC50 | item: COC1(c2cccc(C(N)=O)c2)C2CCCC1CNC2 (stereo not shown) [Compound 35, hydrochloride]
Result: 7.12 to 8.00

Task: Field request: pEC50 | item: COC1(c2cccc(C(N)=O)c2)C2CCCC1CN(Cc1cnn[nH]1)C2 (stereo not shown) [Compound 75, hydrochloride]
Result: > 8.00

Task: Field request: pEC50 | item: COC1(c2ccnc(C(N)=O)c2)C2CCCC1CN([C@H]1C[C@@H](F)C1)C2 (stereo partly shown) [Compound 2, hydrochloride]
Result: 7.12 to 8.00

From: patent US10604489B2
